System: Muscarinic acetylcholine receptors M2 & M3 (Cavia porcellus)
ASSAY: Selectivity ratio is the antilog of the difference between the pA2 values at guinea pig left atrium and ileum muscarinic receptors
METRIC_NAME: Ratio
Give bare numbers.

// solved cases for Ratio follow
COc1ccccc1CN(CCCCCCN(C)CCCCCCCCN(C)CCCCCCNCC(=O)N1c2ccccc2C(=O)Nc2cccnc21)CC(=O)N1c2ccccc2C(=O)Nc2cccnc21.O=C(O)C(=O)O.O=C(O)C(=O)O.O=C(O)C(=O)O.O=C(O)C(=O)O
260
CN(CCCCCCN)CCCCCCCCN(C)CCCCCCN(CC(=O)N1c2ccccc2C(=O)Nc2cccnc21)CC(=O)N1c2ccccc2C(=O)Nc2cccnc21.O=C(O)C(=O)O.O=C(O)C(=O)O.O=C(O)C(=O)O.O=C(O)C(=O)O
260
COc1ccccc1CNCCCCCCN(C)CCCCCCCCN(C)CCCCCCNCC(=O)N1c2ccccc2C(=O)Nc2cccnc21
190
COc1ccccc1CNCCCCCCNCCCCCCCCNCCCCCCN
17
CN(CCCCCCN)CCCCCCCCN(C)CCCCCCN
27

Next:
Exercise: Specify measured Ratio for `CCN(CC)CCCCCCNCC(=O)N1c2ccccc2C(=O)Nc2cccnc21` .
Key: 3

###

Give measured pKi for each item. Keep answers brief.
TARGET_DESC: Muscarinic acetylcholine receptor M1 (Rattus norvegicus)
Sequence (P08482 whole entry): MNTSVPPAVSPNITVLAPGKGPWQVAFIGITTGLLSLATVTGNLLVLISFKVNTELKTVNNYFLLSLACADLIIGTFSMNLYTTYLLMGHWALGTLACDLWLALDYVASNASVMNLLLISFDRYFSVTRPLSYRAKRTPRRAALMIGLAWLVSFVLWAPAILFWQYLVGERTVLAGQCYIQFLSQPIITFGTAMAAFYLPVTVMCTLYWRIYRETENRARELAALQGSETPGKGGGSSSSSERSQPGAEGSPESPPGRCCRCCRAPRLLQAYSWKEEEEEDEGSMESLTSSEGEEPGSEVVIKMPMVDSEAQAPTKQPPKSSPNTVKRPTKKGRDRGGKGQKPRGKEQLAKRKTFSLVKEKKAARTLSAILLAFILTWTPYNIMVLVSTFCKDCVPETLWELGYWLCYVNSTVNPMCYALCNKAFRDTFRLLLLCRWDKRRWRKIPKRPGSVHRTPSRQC
Answers are plain numbers, as −log10 of the molar value.

COc1ccccc1CNCCCCCCN(C)CCCCCCCCN(C)CCCCCCNCC(=O)N1c2ccccc2C(=O)Nc2cccnc21
7.55

Give measured pKi for every item shown.
1. CCN(CC)CCCCC1CCN(CC(=O)N2c3ccccc3C(=O)Nc3cccnc32)CC1
2. COc1ccccc1CN(CCCCCCN(C)CCCCCCCCN(C)CCCCCCN(CC(=O)N1c2ccccc2C(=O)Nc2cccnc21)Cc1ccccc1OC)CC(=O)N1c2ccccc2C(=O)Nc2cccnc21.O=C(O)C(=O)O.O=C(O)C(=O)O.O=C(O)C(=O)O.O=C(O)C(=O)O
3. COc1ccccc1CN(CCCCCCN(C)CCCCCCCCN(C)CCCCCCNCC(=O)N1c2ccccc2C(=O)Nc2cccnc21)CC(=O)N1c2ccccc2C(=O)Nc2cccnc21.O=C(O)C(=O)O.O=C(O)C(=O)O.O=C(O)C(=O)O.O=C(O)C(=O)O

Key:
6.98
8.90
8.73

###

TARGET_DESC: Muscarinic acetylcholine receptor M3 (Rattus norvegicus, UniProt P08483)
Sequence (P08483 whole entry): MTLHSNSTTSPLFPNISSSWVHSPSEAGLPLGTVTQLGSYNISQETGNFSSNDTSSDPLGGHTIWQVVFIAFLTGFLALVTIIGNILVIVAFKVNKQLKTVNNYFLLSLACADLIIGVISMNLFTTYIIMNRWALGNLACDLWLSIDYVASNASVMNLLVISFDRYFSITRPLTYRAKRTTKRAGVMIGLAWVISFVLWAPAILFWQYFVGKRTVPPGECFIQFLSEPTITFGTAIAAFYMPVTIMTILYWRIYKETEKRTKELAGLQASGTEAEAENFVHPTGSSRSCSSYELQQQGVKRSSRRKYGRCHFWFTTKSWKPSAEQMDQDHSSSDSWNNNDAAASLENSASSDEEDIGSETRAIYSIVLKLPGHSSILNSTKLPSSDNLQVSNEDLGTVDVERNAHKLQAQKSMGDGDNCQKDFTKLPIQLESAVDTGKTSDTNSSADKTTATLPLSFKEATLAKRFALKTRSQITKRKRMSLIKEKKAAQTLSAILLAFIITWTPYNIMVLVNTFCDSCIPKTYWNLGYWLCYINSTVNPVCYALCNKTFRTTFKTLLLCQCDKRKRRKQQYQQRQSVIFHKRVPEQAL
ASSAY: Tested for affinity constant against M3 muscarinic receptor in rat submaxillary gland using [3H]NMS
Type: tissue-based
METRIC_NAME: Ki (nM)
One number for each entry, in nM.

Worked examples, 2 molecules total:
CN(CCCCCCN)CCCCCCCCN(C)CCCCCCNCC(=O)N1c2ccccc2C(=O)Nc2cccnc21
468
COc1ccccc1CNCCCCCCN(C)CCCCCCCCN(C)CCCCCCNCC(=O)N1c2ccccc2C(=O)Nc2cccnc21
794

Turning now to a further molecule:
Exercise: Please indicate Ki recorded for `COc1ccccc1CNCCCCCCN(C)CCCCCCCCN(C)CCCCCCN(CC(=O)N1c2ccccc2C(=O)Nc2cccnc21)CC(=O)N1c2ccccc2C(=O)Nc2cccnc21.O=C(O)C(=O)O.O=C(O)C(=O)O.O=C(O)C(=O)O.O=C(O)C(=O)O`
Key: 2510
